method: Plasma pharmacokinetics of MASM in rats, non-compartmental analysis
Type: in vivo, Sprague-Dawley rats
assay_setup: Sprague-Dawley, plasma, po; rat, i.g. 60 mg/kg, n = 6, mean ± SD
value_kind: Cmax (ng/mL)
Please give a number only; it is taken to be in ng/mL.

Which Cmax is reported for this compound? CNC1CC(=S)N2CC3CCCN4CCCC(C34)C2C1 (stereo not shown) [MASM]
1380

###

method: Plasma pharmacokinetics of MASM in rats, non-compartmental analysis
Format: in vivo, Sprague-Dawley rats
assay_setup: Sprague-Dawley, rat, plasma, ip, 80 mg/kg, i.p. 80 mg/kg, n = 6, mean ± SD, read-out: AUC(0–t)
value_kind: AUC(0-t) (ng·h/mL)
Please give a number only; it is taken to be in ng·h/mL.

Which AUC(0-t) is reported for this compound? CNC1CC(=S)N2CC3CCCN4CCCC(C34)C2C1 (stereo not shown)
12400
